# Test system: 5-Lipoxygenase
# test protocol: 5-Lox assay (colorimetric, ferric xylenol orange)
# Type: biochemical
# experimental conditions: 250 μM test substance; linoleic acid substrate, pH 6.3
List of % inhibition @ 250 μM values.
Give a bare numeral; the unit % is implied.

{"columns": ["compound", "unit string", "% inhibition @ 250 μM"],
 "data": [
  ["COc1ccc(C=CC(=O)OC2CCC3(C)C(CCC4(C)C3C(=O)C=C3C5C(C)C(C)CCC5(C)CCC34C)C2(C)C(=O)O)cc1OC (stereo not drawn) [Compound 7]", "%", 17.8],
  ["COC(=O)C1(C)C(OC(=O)CNC(=O)OC(C)(C)C)CCC2(C)C1CCC1(C)C2C(=O)C=C2C3C(C)C(C)CCC3(C)CCC21C (stereo not drawn) [Compound 9]", "%", 16.7],
  ["COC(=O)[C@@]1(C)C(C#N)CC[C@@]2(C)C1CC[C@]1(C)C2C(=O)C=C2C3[C@@H](C)[C@H](C)CC[C@]3(C)CC[C@]21C (stereo partly drawn) [Compound 14, Methyl 3α-cyano-11-ketours-12-en-24-oate]", "%", 3.71],
  ["CC(=O)OC1CC[C@@]2(C)C(CC[C@]3(C)C2C(=O)C=C2C4[C@@H](C)[C@H](C)CC[C@]4(C)CC[C@]23C)[C@@]1(C)N (stereo partly drawn) [Compound 25]", "%", 60.5],
  ["COC(=O)[C@]1(C)C2CC[C@]3(C)C(C(=O)C=C4C5[C@@H](C)[C@H](C)CC[C@]5(C)CC[C@]43C)[C@@]2(C)CC[C@@H]1O (stereo partly drawn) [Compound 12]", "%", 0.37]
]}

API: the following record is the query input.
## Task For C[C@@H]1CC[C@]2(C)CC[C@]3(C)C(=CC(=O)C4[C@@]5(C)CCC(OC(=O)CCl)[C@](C)(C(=O)O)C5CC[C@]43C)C2[C@H]1C (stereo partly drawn) [Compound 2] , write its % inhibition @ 250 μM.
## Result 3.12

* * *

# Tested on: 5-Lipoxygenase
# test protocol: 5-Lox assay (colorimetric, ferric xylenol orange)
# Format: biochemical
# experimental conditions: 250 μM test substance; linoleic acid substrate, pH 6.3
assay endpoint: % inhibition @ 250 μM (%)
Give a bare numeral; the unit % is implied.

For orientation, consider the following solved cases.
{"columns": ["compound", "% inhibition @ 250 μM, %"],
 "data": [
  ["CC(=O)OC1CC[C@@]2(C)C(CC[C@]3(C)C2C(=O)C=C2C4[C@@H](C)[C@H](C)CC[C@]4(C)CC[C@]23C)[C@@H]1C (some centres unmarked)", 0],
  ["COC(=O)[C@]1(C)C2CC[C@]3(C)C(C(=O)C=C4C5[C@@H](C)[C@H](C)CC[C@]5(C)CC[C@]43C)[C@@]2(C)CC[C@@H]1Br (stereo partly drawn) [Compound 13, Methyl 3β-bromo-11-ketours-12-en-24-oate]", 17.6],
  ["CC(=O)OC1CC[C@@]2(C)C(CC[C@]3(C)C2C(=O)C=C2C4[C@@H](C)[C@H](C)CC[C@]4(C)CC[C@]23C)[C@@]1(C)C(=O)NN (some centres unmarked)", 54.3],
  ["CC1CCC2(C)CCC3(C)C(=CC(=O)C4C5(C)CCC(OC(=O)C=Cc6ccc(O)cc6)C(C)(C(=O)O)C5CCC43C)C2C1C (centres unmarked)", 11.3]
]}

API: the following record is the query input.
## Task For COC(=O)[C@]1(C)C2CC[C@]3(C)C(C(=O)C=C4C5[C@@H](C)[C@H](C)CC[C@]5(C)CC[C@]43C)[C@@]2(C)CC[C@H]1S (some centres unmarked) , write its % inhibition @ 250 μM.
## Result 53.1
